# TESTED SYSTEM: Gal(b1-4)GlcNAc(b1-3)Gal(b1-4)GlcNAc(b1-2)[Gal(b1-4)GlcNAc(b1-3)Gal(b1-4)GlcNAc(b1-6)]Man(a1-6)[Gal(b1-4)GlcNAc(b1-3)Gal(b1-4)GlcNAc(b1-2)Man(a1-3)]Man(b1-4)GlcNAc(b1-4)[Fuc(a1-6)]GlcNAc
# PROCEDURE DETAILS: glycan array binding signal (z-score within array); higher = stronger binding
# TEST SETTINGS: glycan notation: IUPAC condensed, linker removed
This is one part of a sample in which the strongest signals are shown more often than they occur.
# key: entry, value: glycan array binding signal (z-score)
Lab note: write the figure by itself, no unit.

Reference set, count: 2
* DC-ASGPR L+GEE (Homo sapiens) (protein) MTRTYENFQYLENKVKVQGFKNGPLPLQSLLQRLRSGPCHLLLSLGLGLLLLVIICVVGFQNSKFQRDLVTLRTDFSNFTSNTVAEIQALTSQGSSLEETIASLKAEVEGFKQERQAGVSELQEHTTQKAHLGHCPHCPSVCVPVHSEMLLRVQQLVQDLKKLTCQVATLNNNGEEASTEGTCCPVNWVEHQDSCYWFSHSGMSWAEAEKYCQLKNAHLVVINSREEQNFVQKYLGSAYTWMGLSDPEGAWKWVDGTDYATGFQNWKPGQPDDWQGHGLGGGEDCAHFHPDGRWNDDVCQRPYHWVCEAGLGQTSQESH | -0.323
* rMpL (Macrolepiota procera) (protein) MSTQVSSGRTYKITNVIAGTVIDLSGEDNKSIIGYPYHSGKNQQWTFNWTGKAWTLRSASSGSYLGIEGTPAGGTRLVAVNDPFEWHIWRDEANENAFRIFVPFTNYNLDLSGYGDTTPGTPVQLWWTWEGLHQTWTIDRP | 3.75

In: Give a short answer stating reported glycan array binding signal (z-score) for rCnSL-A (Clitocybe nebularis) (protein) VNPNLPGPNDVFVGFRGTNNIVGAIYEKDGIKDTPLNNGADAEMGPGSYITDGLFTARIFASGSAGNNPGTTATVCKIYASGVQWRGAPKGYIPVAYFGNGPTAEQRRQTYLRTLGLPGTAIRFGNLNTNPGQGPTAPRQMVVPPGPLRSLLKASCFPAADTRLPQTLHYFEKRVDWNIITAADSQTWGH .
Out: 3.11
